Molecular target: RELA (p65) subunit of heterodimer;p50 subunit (Homo sapiens;Homo sapiens, UniProt Q04206;P19838 1-307;7-356)
Sequence (Q04206 1-307, chain 1 of 2): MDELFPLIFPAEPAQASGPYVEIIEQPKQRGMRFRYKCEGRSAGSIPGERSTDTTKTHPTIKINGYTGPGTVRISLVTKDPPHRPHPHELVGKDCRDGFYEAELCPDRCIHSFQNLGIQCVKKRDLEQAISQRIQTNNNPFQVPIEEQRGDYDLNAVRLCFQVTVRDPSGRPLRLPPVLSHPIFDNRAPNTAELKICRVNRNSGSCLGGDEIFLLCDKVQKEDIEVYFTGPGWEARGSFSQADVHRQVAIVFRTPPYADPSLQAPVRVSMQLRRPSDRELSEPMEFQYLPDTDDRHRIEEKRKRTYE
Sequence (P19838 7-356, chain 2 of 2): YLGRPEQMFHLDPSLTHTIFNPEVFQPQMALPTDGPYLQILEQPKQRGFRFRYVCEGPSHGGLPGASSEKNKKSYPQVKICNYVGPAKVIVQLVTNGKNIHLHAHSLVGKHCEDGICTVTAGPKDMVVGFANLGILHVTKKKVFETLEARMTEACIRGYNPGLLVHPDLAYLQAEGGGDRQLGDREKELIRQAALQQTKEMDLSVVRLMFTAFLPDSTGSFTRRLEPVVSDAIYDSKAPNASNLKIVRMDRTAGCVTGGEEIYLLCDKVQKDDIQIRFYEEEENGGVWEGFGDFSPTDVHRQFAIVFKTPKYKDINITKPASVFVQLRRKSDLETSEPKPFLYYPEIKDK
Test: protein binding microarray; high values mean tight binding
Conditions: dsDNA, one strand shown
Decide by binding signal: equal to or exceeding 0.09 z-score means met, less means not met.

See these solved cases before continuing.
>  <chain>
AGGAAGCCCCC

>  <qualitative_label>
met

$$$$
>  <chain>
CGGGGTTCCCC

>  <qualitative_label>
met

$$$$
>  <chain>
AGAGGTCTCCC

>  <qualitative_label>
not met

$$$$
>  <chain>
GAGTGTGCCCT

>  <qualitative_label>
not met

$$$$
>  <chain>
GAGGTGACCCC

>  <qualitative_label>
not met

$$$$
>  <chain>
CGAGTTATCCT

>  <qualitative_label>
not met

$$$$

Threshold query (binding signal >= 0.09 z-score) on GGGTACCTCCC
met

Check this sequence for binding signal at or above 0.09 z-score: GAATGGATCCC
not met
